Here, each record is paired with measured Ki data.
target: Phosphodiesterase 1 (Homo sapiens, UniProt P54750+Q01064+Q14123); assay: Inhibition of human recombinant PDE1 assessed as inhibition of [3H]cAMP hydrolysis by scintillation proximity assay; assay type: protein assay
experimental-readout: Ki

• COc1cc2c(cc1OC)-c1c(-c3cncs3)nc(C)n1CC2 = > 7.1 µM
• COc1cc2c(cc1OC)-c1c(-c3cnc(C(=O)N(C)C(C)(C)C)s3)ncn1CC2 = > 2 µM
• COc1cc2c(cc1OC)-c1c(-c3cncs3)ncn1CC2 = > 2 µM
• COc1cc2c(cc1OC)-c1c(-c3cccnc3)ncn1CC2 = > 4.274 µM
• COc1cc2c(cc1OC)-c1c(-c3cccnc3)nc(C)n1CC2 = > 7.95 µM
